Value source: the supplement of paper PMC10126150

Test system: ATP;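 also: ATP exposure 15 min at 22 °C before imaging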
PROCEDURE TEXT: switch fluorescence ratio, 500 uM ATP over buffer (Cy3 cluster intensity, sum of 5 cycles each) (fold (ratio)); higher = stronger signal-on switching upon ATP binding; sequences stand for … in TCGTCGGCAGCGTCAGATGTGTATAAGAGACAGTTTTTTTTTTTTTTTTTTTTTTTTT…TC
SETUP CONDITIONS: aptamer strand: ATP DNA aptamer (quencher-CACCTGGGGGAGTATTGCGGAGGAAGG + anchor), 100 nM annealed; ATP concentration: 500 uM
Each item that follows carries a reported switch fluorescence ratio.
Please give the numeric answer without any surrounding text.

[[record]]
chain = "GATCGGGGCA"
quantity_kind = "switch fluorescence ratio"
endpoint_value = 0.977


// query Provide only the value of recorded switch fluorescence ratio for CAGTTACGGT
// result 1

// query Provide only the value of recorded switch fluorescence ratio for ACTATGTGTA
// result 0.989

// query Provide only the value of recorded switch fluorescence ratio for CAGCTCCCGG
// result 1.07

* * *

System: ATP;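 also: ATP exposure 15 min at 22 °C before imaging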
PROCEDURE TEXT: switch fluorescence ratio, 500 uM ATP over buffer (Cy3 cluster intensity, sum of 5 cycles each) (fold (ratio)); higher = stronger signal-on switching upon ATP binding; sequences stand for … in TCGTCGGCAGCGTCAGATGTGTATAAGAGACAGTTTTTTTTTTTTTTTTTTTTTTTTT…TC
SETUP CONDITIONS: aptamer strand: ATP DNA aptamer (quencher-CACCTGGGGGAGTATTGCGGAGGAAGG + anchor), 100 nM annealed; ATP concentration: 500 uM
Each item that follows carries a reported switch fluorescence ratio.

Some sequences with recorded switch fluorescence ratio:
[[record]]
chain = "ACTTGGGCAT"
quantity_kind = "switch fluorescence ratio"
endpoint_value = 0.993

[[record]]
chain = "TTTAATTCAT"
quantity_kind = "switch fluorescence ratio"
endpoint_value = 1.01

[[record]]
chain = "TTTTGAAAAA"
quantity_kind = "switch fluorescence ratio"
endpoint_value = 1


// query Provide only the value of recorded switch fluorescence ratio for ATGTATTGGT
// result 0.991

* * *

Test system: ATP;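 also: ATP exposure 15 min at 22 °C before imaging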
PROCEDURE TEXT: switch fluorescence ratio, 500 uM ATP over buffer (Cy3 cluster intensity, sum of 5 cycles each) (fold (ratio)); higher = stronger signal-on switching upon ATP binding; sequences stand for … in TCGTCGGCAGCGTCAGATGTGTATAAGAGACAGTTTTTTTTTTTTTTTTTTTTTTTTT…TC
SETUP CONDITIONS: aptamer strand: ATP DNA aptamer (quencher-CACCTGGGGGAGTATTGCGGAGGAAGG + anchor), 100 nM annealed; ATP concentration: 500 uM
QUANTITY KIND: switch fluorescence ratio
Please give the numeric answer without any surrounding text.

[[record]]
chain = "CTTTTGGCCT"
endpoint_value = 1.03

[[record]]
chain = "TTTTTTTGGG"
endpoint_value = 1

[[record]]
chain = "TTCGGGTCGC"
endpoint_value = 0.963

[[record]]
chain = "TTCATTTGAG"
endpoint_value = 0.995


// query Provide only the value of recorded switch fluorescence ratio for TTTAATATAT
// result 1.02

// query Provide only the value of recorded switch fluorescence ratio for TATTAACCTG
// result 1.03

// query Provide only the value of recorded switch fluorescence ratio for CAAATTTGGT
// result 0.993

// query Provide only the value of recorded switch fluorescence ratio for AGATGCAGCT
// result 0.976

// query Provide only the value of recorded switch fluorescence ratio for GAGGTGTGAG
// result 1.03

// query Provide only the value of recorded switch fluorescence ratio for GGTCAAGTGG
// result 1

// query Provide only the value of recorded switch fluorescence ratio for CCCCCGTTCC
// result 1.72

* * *

Tested on: ATP;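 also: ATP exposure 15 min at 22 °C before imaging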
PROCEDURE TEXT: switch fluorescence ratio, 500 uM ATP over buffer (Cy3 cluster intensity, sum of 5 cycles each) (fold (ratio)); higher = stronger signal-on switching upon ATP binding; sequences stand for … in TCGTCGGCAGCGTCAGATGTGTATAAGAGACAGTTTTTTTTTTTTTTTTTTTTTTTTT…TC
SETUP CONDITIONS: aptamer strand: ATP DNA aptamer (quencher-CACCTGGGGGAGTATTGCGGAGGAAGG + anchor), 100 nM annealed; ATP concentration: 500 uM
Each item that follows carries a reported switch fluorescence ratio.
Please give the numeric answer without any surrounding text.

Some sequences with recorded switch fluorescence ratio:
[[record]]
chain = "TACAGGGGGT"
quantity_kind = "switch fluorescence ratio"
endpoint_value = 1.02

[[record]]
chain = "ATATTTTAAG"
quantity_kind = "switch fluorescence ratio"
endpoint_value = 0.994

[[record]]
chain = "TGGGAGTTGT"
quantity_kind = "switch fluorescence ratio"
endpoint_value = 0.989


// query Provide only the value of recorded switch fluorescence ratio for AAAAGGTCAG
// result 1.01

// query Provide only the value of recorded switch fluorescence ratio for TAAAGGCGAG
// result 1.02

// query Provide only the value of recorded switch fluorescence ratio for TATGTCCCGT
// result 0.974

// query Provide only the value of recorded switch fluorescence ratio for CTCTTTAGCG
// result 1.01

// query Provide only the value of recorded switch fluorescence ratio for GCTGCTTAGC
// result 1.02

// query Provide only the value of recorded switch fluorescence ratio for TGATGGATTG
// result 0.99

// query Provide only the value of recorded switch fluorescence ratio for GGGGAGTTAT
// result 1.01

// query Provide only the value of recorded switch fluorescence ratio for CGTCAGAGCG
// result 0.98

// query Provide only the value of recorded switch fluorescence ratio for TTTGGCCAAG
// result 0.996

// query Provide only the value of recorded switch fluorescence ratio for GACAGATATG
// result 0.979

* * *

Each item that follows carries a reported switch fluorescence ratio.
Tested on: ATP;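 also: ATP exposure 15 min at 22 °C before imaging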
PROCEDURE TEXT: switch fluorescence ratio, 500 uM ATP over buffer (Cy3 cluster intensity, sum of 5 cycles each) (fold (ratio)); higher = stronger signal-on switching upon ATP binding; sequences stand for … in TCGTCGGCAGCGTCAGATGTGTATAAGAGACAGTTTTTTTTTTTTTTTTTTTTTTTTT…TC
SETUP CONDITIONS: aptamer strand: ATP DNA aptamer (quencher-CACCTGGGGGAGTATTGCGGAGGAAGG + anchor), 100 nM annealed; ATP concentration: 500 uM
Please give the numeric answer without any surrounding text.

[[record]]
chain = "ATTAGTTATT"
endpoint_value = 1.02

[[record]]
chain = "TGAATCTGTT"
endpoint_value = 1.02

[[record]]
chain = "TTCGAAGATT"
endpoint_value = 1

[[record]]
chain = "CAGCAGAGGT"
endpoint_value = 1.02


// query Supply switch fluorescence ratio measured with ATP for CGGGAGGTAT .
// result 1

// query Supply switch fluorescence ratio measured with ATP for TCATATATCT .
// result 0.994

// query Supply switch fluorescence ratio measured with ATP for TACGGTGAGG .
// result 1.02

// query Supply switch fluorescence ratio measured with ATP for ACCGGCGTAG .
// result 1

// query Supply switch fluorescence ratio measured with ATP for GTTGTAGATG .
// result 1

// query Supply switch fluorescence ratio measured with ATP for CGCGGTTCTG .
// result 1.01

// query Supply switch fluorescence ratio measured with ATP for TACGTTAGTA .
// result 1.02

* * *

System: ATP;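 also: ATP exposure 15 min at 22 °C before imaging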
PROCEDURE TEXT: switch fluorescence ratio, 500 uM ATP over buffer (Cy3 cluster intensity, sum of 5 cycles each) (fold (ratio)); higher = stronger signal-on switching upon ATP binding; sequences stand for … in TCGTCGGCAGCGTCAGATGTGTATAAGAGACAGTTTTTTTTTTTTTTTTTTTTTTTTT…TC
SETUP CONDITIONS: aptamer strand: ATP DNA aptamer (quencher-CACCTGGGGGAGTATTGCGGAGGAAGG + anchor), 100 nM annealed; ATP concentration: 500 uM
QUANTITY KIND: switch fluorescence ratio
Please give the numeric answer without any surrounding text.

[[record]]
chain = "TAAAGGGCAC"
target_desc = "ATP"
endpoint_value = 1.01


// query Provide only the value of recorded switch fluorescence ratio for GGCGCAGTGG
// result 1.11

// query Provide only the value of recorded switch fluorescence ratio for TGGGGATAAT
// result 1.01

// query Provide only the value of recorded switch fluorescence ratio for GGGGAAAGCG
// result 1

* * *

Test system: ATP;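 also: ATP exposure 15 min at 22 °C before imaging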
PROCEDURE TEXT: switch fluorescence ratio, 500 uM ATP over buffer (Cy3 cluster intensity, sum of 5 cycles each) (fold (ratio)); higher = stronger signal-on switching upon ATP binding; sequences stand for … in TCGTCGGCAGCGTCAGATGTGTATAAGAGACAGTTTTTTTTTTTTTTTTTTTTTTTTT…TC
SETUP CONDITIONS: aptamer strand: ATP DNA aptamer (quencher-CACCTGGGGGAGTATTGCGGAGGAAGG + anchor), 100 nM annealed; ATP concentration: 500 uM
Outcome label depends on switch fluorescence ratio relative to 1: at/above gives class 1, below gives class 0.

[[record]]
chain = "TTTAAAGTTG"
group_label = "class 1"

[[record]]
chain = "AACGGCAGGT"
group_label = "class 1"

[[record]]
chain = "ATTTGGACGG"
group_label = "class 0"

[[record]]
chain = "ACAGGAGAC"
group_label = "class 1"

[[record]]
chain = "TTTATAGCGA"
group_label = "class 1"


Now let's try a different one.
// query Hello, I need to know if GAGGGCGTAA has measured switch fluorescence ratio not below 1. Thanks!
// result class 1
